Recorded EC50, one value per entry.
# Test system: P. falciparum W2
# experimental_protocol: In vitro P. falciparum growth inhibition assay (SybrGreen), multi-drug-resistant W2 strain
# Format: cell-based, Plasmodium falciparum
# experimental_parameters: Plasmodium falciparum, W2, 72 h, multi-drug-resistant W2 strain, 72 h, SybrGreen; ± standard deviation; read-out: EC50 PfW2
readout_type: EC50 (µM)

                                   molecule  units_text  readout_qualifier  assay_result
0  COc1ccc(C2CC(=O)NC3=C2C(=O)C2(Oc4c(Cl)c(OC)cc(OC)c4C2=O)C(C)C3)cc1O (centres unmarked)          µM                  =          5.65
1  COc1ccccc1CNC(=O)C1CN2CCC1CC2Cn1cc(-c2cccc(N)c2)nn1 (centres unmarked)          µM                  <             5
2  COc1cc(C2NCCc3cc(OC)c(OC)cc32)ccc1O (centres unmarked)          µM                  =          0.65
3  COc1ccc(C2c3[nH]c4ccccc4c3C[C@H]3C(=O)N(C4CC4)CC(=O)N23)cc1OC (some centres unmarked)          µM                  <             5
4   Cn1c(=O)[nH]c2nnc(-c3ccc(Cl)cc3)nc2c1=O          µM                  =          3.11

* * *

# System: P. falciparum 3D7
# experimental_protocol: In vitro P. falciparum growth inhibition assay (SybrGreen), chloroquine-sensitive 3D7 strain
# Type: cell-based, Plasmodium falciparum
# experimental_parameters: chloroquine-sensitive 3D7 strain, 72 h, SybrGreen; ± standard deviation; read-out: EC50 Pf3D7
Recorded EC50, one value per entry.
readout_type: EC50 (µM)

In [3]: df
Out[3]:
                                   compound       study_target  assay_result
0  COc1ccc(C2c3[nH]c4ccccc4c3C[C@H]3C(=O)N(C4CC4)CC(=O)N23)cc1OC (stereo partly drawn)  P. falciparum 3D7          3.68
1  COc1ccccc1CNC(=O)C1CN2CCC1CC2Cn1cc(-c2cccc(N)c2)nn1 (stereo not drawn)  P. falciparum 3D7          4.52
2   CCOC(=O)c1ccc2[nH]cc(C(=O)OCC)c(=O)c2c1  P. falciparum 3D7          3.84
